Target: T1, PD-1 (UniProt Q15116 25-170, limits assumed)
T1 construct: also called PD-1 protein
T1 sequence (Q15116 25-170 limits assumed): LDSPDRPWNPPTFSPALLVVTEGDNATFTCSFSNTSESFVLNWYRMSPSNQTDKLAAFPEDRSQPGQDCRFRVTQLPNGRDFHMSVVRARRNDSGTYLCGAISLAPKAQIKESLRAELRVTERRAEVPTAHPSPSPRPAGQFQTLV
Test: SPR; set-up and antigen form not restated
Answer each item with its documented pKd.
Entry type: numeric. Quantity: pKd, the -log10 of concentration in molar units.

Inquiry: Please look up its pKd: NB194-P29-z4 (Fc fusion, not shown: IgG4 constant region of vector pCDNA3.4-IgG4) heavy: QVQLVESGGGLVQPGGSLRLSCTASGHSFSIYDMGWFRQAADKERESVAVINFGRGTTYYAESVKGRFTISRDNAKNTVYLQMNSLRAEDTAVYSCGIDRRQYGLGIPPLADHWGQGSQVTVSS
Reply text: 9.65

Inquiry: Another binder: NB194-P29-z10 (Fc fusion, not shown: IgG4 constant region of vector pCDNA3.4-IgG4) heavy: ELQLVESGGGLVQPGGSLRLSCAASGHSFSIYDMGWFRQAADKERESVAVINFGRGTTYYAESVKGRFTISRDNAKNTVYLQMNSLRAEDTAVYSCGIDRRQYGLGIPPLADHWGQGSQVTVSS
Reply text: 9.75

Inquiry: What do you get for NB194-P29-z1 (Fc fusion, not shown: IgG4 constant region of vector pCDNA3.4-IgG4) heavy: QVQLVESGGGLVQPGGSLRLSCSASGHSFSIYDMGWFRQAADKERESVAVINFGRGTTYYAESVKGRFTISRDNAKNTVYLQMNSLRAEDTAVYSCGIDRRQYGLGIPPLADHWGQGSQVTVSS ?
Reply text: 9.58

Inquiry: Same question for NB194-P29-z8 (Fc fusion, not shown: IgG4 constant region of vector pCDNA3.4-IgG4) heavy: QVQLVESGGGLVQPGGSLRLSCSASGHSFSIYDMGWFRQAPGKERESVAVINFGRGTTYYAESVKGRFTISRDNAKNTVYLQMNSLRAEDTAVYSCGIDRRQYGLGIPPLADHWGQGSQVTVSS please.
Reply text: 9.63
